Origin of measurements: paper PMC6407917

Molecular target: MAPK9 (Homo sapiens, UniProt P45984)
Test: biochemical
Parameters: species or system HEK293/K-562/placenta mixed human extract; Kinobeads chemoproteomic competition binding, quantified by TMT LC-MS/MS, dose response up to 20 uM
pIC50: −log10 of the molar value.
Assay Readout: pIC50

// query Sample COc1ccccc1-c1n[nH]c2nc(N[C@H]3CC[C@H](NS(=O)(=O)CCC(F)(F)F)CC3)nc(OC)c12 — what was its pIC50?
// result ≤ 4.70

* * *

Target: FER (Homo sapiens, UniProt P16591)
Sequence (P16591 whole entry): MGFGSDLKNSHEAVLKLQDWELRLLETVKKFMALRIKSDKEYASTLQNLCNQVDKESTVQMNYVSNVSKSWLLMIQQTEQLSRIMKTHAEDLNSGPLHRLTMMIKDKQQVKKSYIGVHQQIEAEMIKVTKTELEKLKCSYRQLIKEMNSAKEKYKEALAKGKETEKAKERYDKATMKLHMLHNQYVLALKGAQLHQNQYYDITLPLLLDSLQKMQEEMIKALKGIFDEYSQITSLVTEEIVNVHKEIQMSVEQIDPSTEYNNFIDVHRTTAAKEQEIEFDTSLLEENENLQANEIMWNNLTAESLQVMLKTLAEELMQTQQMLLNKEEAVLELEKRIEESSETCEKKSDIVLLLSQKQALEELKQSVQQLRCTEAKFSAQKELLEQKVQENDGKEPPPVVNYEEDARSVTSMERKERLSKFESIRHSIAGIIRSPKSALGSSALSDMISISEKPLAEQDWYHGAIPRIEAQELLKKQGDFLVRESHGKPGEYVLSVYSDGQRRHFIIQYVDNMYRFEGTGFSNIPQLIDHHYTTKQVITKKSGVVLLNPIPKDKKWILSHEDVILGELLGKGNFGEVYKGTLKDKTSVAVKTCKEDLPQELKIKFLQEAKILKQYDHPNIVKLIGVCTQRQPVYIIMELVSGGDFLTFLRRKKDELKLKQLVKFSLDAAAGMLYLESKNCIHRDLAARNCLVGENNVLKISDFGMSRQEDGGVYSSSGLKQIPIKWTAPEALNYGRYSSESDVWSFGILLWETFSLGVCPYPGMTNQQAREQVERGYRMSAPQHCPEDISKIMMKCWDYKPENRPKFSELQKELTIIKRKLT
Assay: biochemical
Parameters: species or system HEK293/K-562/placenta mixed human extract; Kinobeads chemoproteomic competition binding, quantified by TMT LC-MS/MS, dose response up to 20 uM
Assay Readout: IC50

// query Sample COc1ccccc1-c1n[nH]c2nc(N[C@H]3CC[C@H](NS(=O)(=O)CCC(F)(F)F)CC3)nc(OC)c12 — what was its IC50?
// result ≥ 20 µM

* * *

Biological target: IRAK4 (Homo sapiens)
Test: biochemical
Parameters: species or system HEK293/K-562/placenta mixed human extract; Kinobeads chemoproteomic competition binding, quantified by TMT LC-MS/MS, dose response up to 20 uM
pIC50: −log10 of the molar value.
Assay Readout: pIC50

// query Sample COc1ccccc1-c1n[nH]c2nc(N[C@H]3CC[C@H](NS(=O)(=O)CCC(F)(F)F)CC3)nc(OC)c12 [compound 31] — what was its pIC50?
// result ≤ 4.70

* * *

Target: MET (Homo sapiens, UniProt P08581)
Sequence (P08581 whole entry): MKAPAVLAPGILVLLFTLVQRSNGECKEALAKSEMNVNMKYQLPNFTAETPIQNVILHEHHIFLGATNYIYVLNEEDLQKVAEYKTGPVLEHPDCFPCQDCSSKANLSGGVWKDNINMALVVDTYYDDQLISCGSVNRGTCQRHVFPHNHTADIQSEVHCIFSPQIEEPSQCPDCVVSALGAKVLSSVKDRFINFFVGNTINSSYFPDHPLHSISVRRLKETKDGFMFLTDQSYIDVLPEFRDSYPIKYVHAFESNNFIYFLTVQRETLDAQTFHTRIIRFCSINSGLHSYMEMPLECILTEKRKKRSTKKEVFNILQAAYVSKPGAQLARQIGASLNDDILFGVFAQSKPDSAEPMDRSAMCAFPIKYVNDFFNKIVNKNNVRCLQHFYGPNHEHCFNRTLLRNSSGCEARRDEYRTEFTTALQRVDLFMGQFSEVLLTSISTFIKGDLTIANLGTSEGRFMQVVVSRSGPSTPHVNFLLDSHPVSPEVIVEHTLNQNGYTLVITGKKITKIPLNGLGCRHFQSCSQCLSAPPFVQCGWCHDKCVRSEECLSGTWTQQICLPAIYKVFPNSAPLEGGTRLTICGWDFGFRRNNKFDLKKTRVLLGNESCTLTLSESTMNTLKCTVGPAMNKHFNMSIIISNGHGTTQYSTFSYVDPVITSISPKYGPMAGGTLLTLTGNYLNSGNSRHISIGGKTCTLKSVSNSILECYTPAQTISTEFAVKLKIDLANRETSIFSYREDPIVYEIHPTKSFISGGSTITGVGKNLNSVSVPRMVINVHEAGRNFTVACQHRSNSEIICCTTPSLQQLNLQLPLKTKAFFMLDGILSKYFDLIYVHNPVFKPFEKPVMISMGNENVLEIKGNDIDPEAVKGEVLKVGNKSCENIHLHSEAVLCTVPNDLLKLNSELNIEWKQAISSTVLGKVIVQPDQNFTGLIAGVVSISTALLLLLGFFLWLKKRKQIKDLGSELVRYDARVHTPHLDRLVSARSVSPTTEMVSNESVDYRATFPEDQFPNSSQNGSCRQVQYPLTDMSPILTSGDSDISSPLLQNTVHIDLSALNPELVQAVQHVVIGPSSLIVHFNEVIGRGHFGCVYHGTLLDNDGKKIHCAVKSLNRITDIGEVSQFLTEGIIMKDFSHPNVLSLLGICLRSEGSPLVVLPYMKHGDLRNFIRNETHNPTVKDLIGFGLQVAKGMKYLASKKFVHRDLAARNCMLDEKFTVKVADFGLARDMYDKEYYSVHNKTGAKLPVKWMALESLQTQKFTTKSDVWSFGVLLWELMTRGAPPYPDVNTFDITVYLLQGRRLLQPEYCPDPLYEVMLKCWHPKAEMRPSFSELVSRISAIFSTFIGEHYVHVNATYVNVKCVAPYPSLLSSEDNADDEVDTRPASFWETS
Assay: biochemical
Set-up: species or system HEK293/K-562/placenta mixed human extract; Kinobeads chemoproteomic competition binding, quantified by TMT LC-MS/MS, dose response up to 20 uM
Assay Readout: IC50

// query Sample COc1nc(N[C@H]2CC[C@H](NS(=O)(=O)CC(C)C)CC2)nc2[nH]nc(N3CCOC[C@H]3C)c12 — what was its IC50?
// result ≥ 20 µM

* * *

Molecular target: PLK4 (Homo sapiens, UniProt O00444)
Sequence (O00444 whole entry): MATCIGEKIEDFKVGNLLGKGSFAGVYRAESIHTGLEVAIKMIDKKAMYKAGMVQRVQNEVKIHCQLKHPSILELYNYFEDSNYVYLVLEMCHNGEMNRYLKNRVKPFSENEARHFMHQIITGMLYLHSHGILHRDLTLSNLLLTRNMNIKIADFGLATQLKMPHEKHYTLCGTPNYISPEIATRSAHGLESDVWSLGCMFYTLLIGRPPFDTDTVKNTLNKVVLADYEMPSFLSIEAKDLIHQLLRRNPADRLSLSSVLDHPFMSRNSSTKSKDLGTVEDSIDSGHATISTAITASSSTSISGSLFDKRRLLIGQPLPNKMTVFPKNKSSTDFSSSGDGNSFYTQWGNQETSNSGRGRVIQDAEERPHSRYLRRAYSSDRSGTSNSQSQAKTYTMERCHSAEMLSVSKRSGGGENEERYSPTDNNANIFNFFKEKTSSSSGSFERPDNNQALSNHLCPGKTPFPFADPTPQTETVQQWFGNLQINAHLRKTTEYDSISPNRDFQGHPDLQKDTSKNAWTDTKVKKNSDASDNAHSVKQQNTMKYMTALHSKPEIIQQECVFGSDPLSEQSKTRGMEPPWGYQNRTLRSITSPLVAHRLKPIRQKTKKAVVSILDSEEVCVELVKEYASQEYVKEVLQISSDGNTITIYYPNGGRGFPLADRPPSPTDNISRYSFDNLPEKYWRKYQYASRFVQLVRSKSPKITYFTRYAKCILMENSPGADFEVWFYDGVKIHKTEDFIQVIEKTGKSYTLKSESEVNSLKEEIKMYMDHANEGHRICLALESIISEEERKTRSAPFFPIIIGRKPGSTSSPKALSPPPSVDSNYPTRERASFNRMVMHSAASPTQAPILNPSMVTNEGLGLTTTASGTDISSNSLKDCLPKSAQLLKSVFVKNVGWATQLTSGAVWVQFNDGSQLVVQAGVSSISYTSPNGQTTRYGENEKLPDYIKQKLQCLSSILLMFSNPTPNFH
Assay: biochemical
Design: species or system HEK293/K-562/placenta mixed human extract; Kinobeads chemoproteomic competition binding, quantified by TMT LC-MS/MS, dose response up to 20 uM
Assay Readout: IC50

// query Sample COc1ccccc1-c1n[nH]c2nc(N[C@H]3CC[C@H](NS(=O)(=O)CCC(F)(F)F)CC3)nc(OC)c12 — what was its IC50?
// result ≥ 20 µM

* * *

Molecular target: PTK2 (Homo sapiens, UniProt Q05397)
Experiment: biochemical
Parameters: species or system HEK293/K-562/placenta mixed human extract; Kinobeads chemoproteomic competition binding, quantified by TMT LC-MS/MS, dose response up to 20 uM
pIC50: −log10 of the molar value.
Assay Readout: pIC50

// query Sample COc1ccccc1-c1n[nH]c2nc(N[C@H]3CC[C@H](NS(=O)(=O)CCC(F)(F)F)CC3)nc(OC)c12 — what was its pIC50?
// result ≤ 4.70

* * *

Target: EPHA2 (Homo sapiens)
Sequence (P29317 whole entry): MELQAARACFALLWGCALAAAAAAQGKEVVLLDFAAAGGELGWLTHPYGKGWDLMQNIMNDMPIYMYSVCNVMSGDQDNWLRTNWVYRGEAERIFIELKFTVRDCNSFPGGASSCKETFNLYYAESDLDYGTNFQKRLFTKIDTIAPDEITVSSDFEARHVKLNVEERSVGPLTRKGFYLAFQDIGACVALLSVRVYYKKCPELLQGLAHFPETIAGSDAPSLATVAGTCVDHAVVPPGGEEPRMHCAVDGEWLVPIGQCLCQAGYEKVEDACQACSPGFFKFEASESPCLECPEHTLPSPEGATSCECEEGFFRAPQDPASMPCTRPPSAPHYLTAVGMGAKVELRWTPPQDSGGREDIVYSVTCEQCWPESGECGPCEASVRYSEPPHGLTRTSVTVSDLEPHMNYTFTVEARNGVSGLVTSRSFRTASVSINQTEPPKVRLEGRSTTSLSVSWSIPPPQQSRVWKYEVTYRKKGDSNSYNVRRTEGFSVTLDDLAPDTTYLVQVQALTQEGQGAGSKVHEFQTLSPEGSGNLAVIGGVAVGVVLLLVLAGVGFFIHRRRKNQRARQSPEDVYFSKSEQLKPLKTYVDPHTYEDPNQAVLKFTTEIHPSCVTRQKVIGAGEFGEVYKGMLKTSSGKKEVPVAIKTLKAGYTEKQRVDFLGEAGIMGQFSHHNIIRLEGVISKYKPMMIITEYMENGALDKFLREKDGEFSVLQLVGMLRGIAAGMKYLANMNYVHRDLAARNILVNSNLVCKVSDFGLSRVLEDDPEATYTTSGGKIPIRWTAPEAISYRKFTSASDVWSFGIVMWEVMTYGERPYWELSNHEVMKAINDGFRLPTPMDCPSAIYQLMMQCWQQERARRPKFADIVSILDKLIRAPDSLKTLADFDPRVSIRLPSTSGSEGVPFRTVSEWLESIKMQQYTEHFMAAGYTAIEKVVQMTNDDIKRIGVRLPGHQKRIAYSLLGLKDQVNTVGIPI
Assay: biochemical
Design: species or system HEK293/K-562/placenta mixed human extract; Kinobeads chemoproteomic competition binding, quantified by TMT LC-MS/MS, dose response up to 20 uM
pIC50: −log10 of the molar value.
Assay Readout: pIC50

// query // fetch EPHA2 (Homo sapiens) pIC50 for COc1ccccc1-c1n[nH]c2nc(N[C@H]3CC[C@H](NS(=O)(=O)CCC(F)(F)F)CC3)nc(OC)c12
// result ≤ 4.70

* * *

Target: EPHA1 (Homo sapiens, UniProt P21709)
Assay: biochemical
Parameters: species or system HEK293/K-562/placenta mixed human extract; Kinobeads chemoproteomic competition binding, quantified by TMT LC-MS/MS, dose response up to 20 uM
pIC50: −log10 of the molar value.
Assay Readout: pIC50

// query Sample COc1ccccc1-c1n[nH]c2nc(N[C@H]3CC[C@H](NS(=O)(=O)CCC(F)(F)F)CC3)nc(OC)c12 — what was its pIC50?
// result ≤ 4.70

* * *

Molecular target: FGFR1 (Homo sapiens, UniProt P11362)
Assay: biochemical
Set-up: species or system HEK293/K-562/placenta mixed human extract; Kinobeads chemoproteomic competition binding, quantified by TMT LC-MS/MS, dose response up to 20 uM
Assay Readout: IC50

// query // fetch FGFR1 (Homo sapiens, UniProt P11362) IC50 for COc1nc(N[C@H]2CC[C@H](NS(=O)(=O)CC(C)C)CC2)nc2[nH]nc(N3CCOC[C@H]3C)c12
// result ≥ 20 µM

* * *

Biological target: UniProt:P11309
Sequence (P11309 whole entry): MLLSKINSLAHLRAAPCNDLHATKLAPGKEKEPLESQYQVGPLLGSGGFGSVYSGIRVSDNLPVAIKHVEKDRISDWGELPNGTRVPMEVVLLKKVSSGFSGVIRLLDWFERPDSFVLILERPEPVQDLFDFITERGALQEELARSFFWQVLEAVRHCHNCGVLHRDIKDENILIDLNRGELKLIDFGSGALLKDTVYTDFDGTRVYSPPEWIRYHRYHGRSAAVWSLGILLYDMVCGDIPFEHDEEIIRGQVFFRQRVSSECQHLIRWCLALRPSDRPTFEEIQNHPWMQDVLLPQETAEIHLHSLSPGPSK
Test: biochemical
Parameters: species or system HEK293/K-562/placenta mixed human extract; Kinobeads chemoproteomic competition binding, quantified by TMT LC-MS/MS, dose response up to 20 uM
Assay Readout: IC50

// query Sample COc1ccccc1-c1n[nH]c2nc(N[C@H]3CC[C@H](NS(=O)(=O)CCC(F)(F)F)CC3)nc(OC)c12 — what was its IC50?
// result ≥ 20 µM

* * *

Target: PTK2B (Homo sapiens, UniProt Q14289)
Test: biochemical
Design: species or system HEK293/K-562/placenta mixed human extract; Kinobeads chemoproteomic competition binding, quantified by TMT LC-MS/MS, dose response up to 20 uM
pIC50: −log10 of the molar value.
Assay Readout: pIC50

// query Sample COc1nc(N[C@H]2CC[C@H](NS(=O)(=O)CC(C)C)CC2)nc2[nH]nc(N3CCOC[C@H]3C)c12 — what was its pIC50?
// result ≤ 4.70

* * *

Target: RPS6KB1 (Homo sapiens)
Sequence (P23443 whole entry): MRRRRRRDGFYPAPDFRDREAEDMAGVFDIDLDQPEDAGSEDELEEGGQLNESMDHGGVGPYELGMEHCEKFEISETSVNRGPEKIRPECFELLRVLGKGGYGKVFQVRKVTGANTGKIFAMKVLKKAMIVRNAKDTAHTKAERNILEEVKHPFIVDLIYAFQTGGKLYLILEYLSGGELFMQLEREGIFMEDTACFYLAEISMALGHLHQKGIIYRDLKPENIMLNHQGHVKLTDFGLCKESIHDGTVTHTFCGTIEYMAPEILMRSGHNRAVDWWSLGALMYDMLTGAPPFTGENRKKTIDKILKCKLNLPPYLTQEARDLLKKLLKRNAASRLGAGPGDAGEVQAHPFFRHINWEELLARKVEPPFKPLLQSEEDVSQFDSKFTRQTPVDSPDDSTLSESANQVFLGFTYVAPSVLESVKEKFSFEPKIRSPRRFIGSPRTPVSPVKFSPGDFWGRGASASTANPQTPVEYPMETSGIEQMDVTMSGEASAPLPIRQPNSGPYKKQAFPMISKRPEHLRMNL
Assay Readout: IC50

// query Sample COc1ccccc1-c1n[nH]c2nc(N[C@H]3CC[C@H](NS(=O)(=O)CCC(F)(F)F)CC3)nc(OC)c12 [compound 31] — what was its IC50?
// result ≥ 20 µM

* * *

Molecular target: LYN (Homo sapiens)
Experiment: biochemical
Design: species or system HEK293/K-562/placenta mixed human extract; Kinobeads chemoproteomic competition binding, quantified by TMT LC-MS/MS, dose response up to 20 uM
pIC50: −log10 of the molar value.
Assay Readout: pIC50

// query // fetch LYN (Homo sapiens) pIC50 for COc1ccccc1-c1n[nH]c2nc(N[C@H]3CC[C@H](NS(=O)(=O)CCC(F)(F)F)CC3)nc(OC)c12 [compound 31]
// result ≤ 4.70

* * *

Molecular target: MAP2K3 (Homo sapiens, UniProt P46734)
Sequence (P46734 1-347): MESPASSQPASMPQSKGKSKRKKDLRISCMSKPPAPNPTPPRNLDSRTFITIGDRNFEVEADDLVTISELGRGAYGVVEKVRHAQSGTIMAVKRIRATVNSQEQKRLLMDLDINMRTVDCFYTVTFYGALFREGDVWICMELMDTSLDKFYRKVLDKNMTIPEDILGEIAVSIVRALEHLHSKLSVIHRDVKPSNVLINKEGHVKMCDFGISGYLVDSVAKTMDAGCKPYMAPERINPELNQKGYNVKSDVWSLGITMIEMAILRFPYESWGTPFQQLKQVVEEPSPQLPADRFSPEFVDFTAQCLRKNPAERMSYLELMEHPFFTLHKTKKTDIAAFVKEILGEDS
Assay: biochemical
Design: species or system HEK293/K-562/placenta mixed human extract; Kinobeads chemoproteomic competition binding, quantified by TMT LC-MS/MS, dose response up to 20 uM
Assay Readout: IC50

// query Sample COc1ccccc1-c1n[nH]c2nc(N[C@H]3CC[C@H](NS(=O)(=O)CCC(F)(F)F)CC3)nc(OC)c12 — what was its IC50?
// result ≥ 20 µM

* * *

Target: CSNK2A2 (Homo sapiens, UniProt P19784)
Test: biochemical
Set-up: species or system HEK293/K-562/placenta mixed human extract; Kinobeads chemoproteomic competition binding, quantified by TMT LC-MS/MS, dose response up to 20 uM
Assay Readout: IC50

// query Sample COc1ccccc1-c1n[nH]c2nc(N[C@H]3CC[C@H](NS(=O)(=O)CCC(F)(F)F)CC3)nc(OC)c12 — what was its IC50?
// result ≥ 20 µM

* * *

Target: NEK1 (Homo sapiens)
Assay: biochemical
Set-up: species or system HEK293/K-562/placenta mixed human extract; Kinobeads chemoproteomic competition binding, quantified by TMT LC-MS/MS, dose response up to 20 uM
Assay Readout: IC50

// query Sample COc1nc(N[C@H]2CC[C@H](NS(=O)(=O)CC(C)C)CC2)nc2[nH]nc(N3CCOC[C@H]3C)c12 — what was its IC50?
// result ≥ 20 µM

* * *

Biological target: ITK (Homo sapiens)
Experiment: biochemical
Design: species or system HEK293/K-562/placenta mixed human extract; Kinobeads chemoproteomic competition binding, quantified by TMT LC-MS/MS, dose response up to 20 uM
pIC50: −log10 of the molar value.
Assay Readout: pIC50

// query // fetch ITK (Homo sapiens) pIC50 for COc1nc(N[C@H]2CC[C@H](NS(=O)(=O)CC(C)C)CC2)nc2[nH]nc(N3CCOC[C@H]3C)c12 [compound 39]
// result ≤ 4.70
